# Tested on: human neutrophils
# PROTOCOL_NOTES: fMLP-induced human neutrophil migration
# Format: cell-based
# EXPERIMENTAL_PARAMETERS: neutrophil (PMN) migration, read-out: Human PMN Migration (EC50)
OUTCOME_MEASURE: EC50 (nM)
Write it as a number; the unit nM goes unstated.

What value of measured EC50 is listed for `COc1ccccc1-n1c(CSc2ncnc3[nH]cnc23)nc2ccccc2c1=O` ?
200

What value of measured EC50 is listed for O=c1c2ccccc2nc(CSc2ncnc3[nH]ncc23)n1-c1ccccc1Cl [Compound D-999, reference compound] ?
1000

What value of measured EC50 is listed for `O=c1c2ccccc2nc(CSc2ncnc3[nH]cnc23)n1Cc1ccccc1` ?
2000

What value of measured EC50 is listed for `Cc1cccc2nc(Cn3cnc4c(N)ncnc43)n(-c3ccccc3C(C)C)c(=O)c12` ?
300

What value of measured EC50 is listed for `O=c1c2c(Cl)cccc2nc(CSc2ncnc3[nH]cnc23)n1-c1ccccc1Cl` ?
300

What value of measured EC50 is listed for `O=c1c2c(F)cccc2nc(CSc2ncnc3[nH]cnc23)n1-c1ccccc1Cl` ?
2000

What value of measured EC50 is listed for `Cc1cccc2nc(CSc3ncnc4[nH]cnc34)n(-c3ccccc3Cl)c(=O)c12` ?
300

What value of measured EC50 is listed for `Cc1ccccc1-n1c(Cn2cnc3c(N)ncnc32)nc2cccc(C)c2c1=O` ?
200

---

# STUDY_TARGET: PI3Kα (Homo sapiens, UniProt P42336)
# Construct: His tag (pFastbac HTb vector) (N); FLAG; made in house; host or cells: Sf21 insect cells (baculovirus)
# Sequence (P42336 whole entry): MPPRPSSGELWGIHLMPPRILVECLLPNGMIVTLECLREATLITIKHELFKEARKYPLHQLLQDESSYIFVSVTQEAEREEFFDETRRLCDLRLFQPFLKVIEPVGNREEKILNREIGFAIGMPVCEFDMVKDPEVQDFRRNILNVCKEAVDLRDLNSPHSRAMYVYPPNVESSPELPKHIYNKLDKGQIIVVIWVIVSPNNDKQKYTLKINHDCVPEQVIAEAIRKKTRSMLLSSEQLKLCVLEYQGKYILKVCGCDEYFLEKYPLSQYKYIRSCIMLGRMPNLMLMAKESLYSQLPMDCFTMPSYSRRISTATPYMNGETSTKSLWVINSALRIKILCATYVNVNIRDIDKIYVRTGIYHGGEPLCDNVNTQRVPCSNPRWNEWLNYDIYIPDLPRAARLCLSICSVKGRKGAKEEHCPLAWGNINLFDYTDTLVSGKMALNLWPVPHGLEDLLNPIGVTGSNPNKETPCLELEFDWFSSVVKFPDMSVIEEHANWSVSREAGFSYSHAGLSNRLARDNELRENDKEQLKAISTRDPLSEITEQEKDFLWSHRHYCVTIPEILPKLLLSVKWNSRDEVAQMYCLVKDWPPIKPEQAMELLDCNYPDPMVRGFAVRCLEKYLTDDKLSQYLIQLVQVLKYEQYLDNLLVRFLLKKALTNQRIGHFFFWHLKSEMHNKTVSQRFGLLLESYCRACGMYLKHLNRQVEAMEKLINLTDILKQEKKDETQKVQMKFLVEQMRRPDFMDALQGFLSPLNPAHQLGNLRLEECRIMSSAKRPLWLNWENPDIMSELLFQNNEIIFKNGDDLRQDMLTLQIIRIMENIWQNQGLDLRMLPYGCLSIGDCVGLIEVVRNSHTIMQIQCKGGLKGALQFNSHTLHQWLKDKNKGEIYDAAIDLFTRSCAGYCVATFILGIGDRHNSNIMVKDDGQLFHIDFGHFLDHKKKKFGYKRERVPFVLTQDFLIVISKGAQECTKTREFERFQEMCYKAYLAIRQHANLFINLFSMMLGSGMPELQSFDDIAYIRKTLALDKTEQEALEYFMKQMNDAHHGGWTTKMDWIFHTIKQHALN
# Sequence (P27986 whole entry partner): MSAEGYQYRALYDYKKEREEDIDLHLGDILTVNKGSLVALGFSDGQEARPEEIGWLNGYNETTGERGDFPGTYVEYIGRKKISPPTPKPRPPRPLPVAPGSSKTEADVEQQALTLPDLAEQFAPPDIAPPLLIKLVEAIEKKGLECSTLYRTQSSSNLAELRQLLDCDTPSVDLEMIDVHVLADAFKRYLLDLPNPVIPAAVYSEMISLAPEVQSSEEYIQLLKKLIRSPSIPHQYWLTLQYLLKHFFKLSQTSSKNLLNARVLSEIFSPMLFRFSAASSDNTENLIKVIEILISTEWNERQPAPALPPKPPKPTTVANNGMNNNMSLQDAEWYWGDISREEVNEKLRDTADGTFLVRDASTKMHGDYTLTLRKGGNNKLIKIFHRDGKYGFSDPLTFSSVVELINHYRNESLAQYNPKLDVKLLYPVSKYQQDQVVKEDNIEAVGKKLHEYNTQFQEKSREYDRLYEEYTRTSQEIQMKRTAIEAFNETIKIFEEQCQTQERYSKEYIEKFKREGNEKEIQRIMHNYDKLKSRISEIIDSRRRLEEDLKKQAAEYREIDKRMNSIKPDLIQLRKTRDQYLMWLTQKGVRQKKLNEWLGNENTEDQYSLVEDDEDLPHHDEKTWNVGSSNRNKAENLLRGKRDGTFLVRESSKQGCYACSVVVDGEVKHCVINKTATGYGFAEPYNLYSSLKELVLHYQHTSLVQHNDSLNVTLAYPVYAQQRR
# PROTOCOL_NOTES: Biochemical assay of PI3K potency and selectivity using 20 μM ATP, Alpha
# EXPERIMENTAL_PARAMETERS: read-out: percent activity remaining at 100 μM, 20 μM ATP; 100 μM compound did not inhibit by at least 50%
Please respond with reported remaining activity at 100 µM for every item in the list.
Write it as a number; the unit % goes unstated.

What value of measured remaining activity at 100 µM is listed for `O=c1c2cc(F)ccc2nc(CSc2ncnc3[nH]cnc23)n1-c1ccccc1Cl` ?
67

What value of measured remaining activity at 100 µM is listed for `O=c1c2ccc([N+](=O)[O-])cc2nc(CSc2ncnc3[nH]cnc23)n1-c1ccccc1Cl` ?
83

What value of measured remaining activity at 100 µM is listed for `O=c1c2cc(Br)ccc2nc(CSc2ncnc3[nH]cnc23)n1-c1ccccc1Cl` ?
89

What value of measured remaining activity at 100 µM is listed for `Nc1ncnc2c1ncn2Cc1nc2cccc(Cl)c2c(=O)n1-c1ccccc1F` ?
69

---

Please respond with reported pIC50 for every item in the list.
# STUDY_TARGET: PI3Kα (Homo sapiens)
# Construct: His tag (pFastbac HTb vector) (N); FLAG; made in house; host or cells: Sf21 insect cells (baculovirus)
# PROTOCOL_NOTES: Biochemical assay of PI3K potency and selectivity using 20 μM ATP, Alpha
# EXPERIMENTAL_PARAMETERS: 20 μM ATP; read-out: Alpha IC50
Scale for pIC50: -log10 of concentration given in mol/L; no unit attached.

What value of measured pIC50 is listed for `O=c1c2cc(O)ccc2nc(CSc2ncnc3[nH]cnc23)n1-c1ccccc1Cl` ?
4.00

What value of measured pIC50 is listed for `Cc1ccccc1-n1c(CSc2ncnc3[nH]cnc23)nc2cccc(Cl)c2c1=O` ?
4.32

What value of measured pIC50 is listed for O=c1c2ccccc2nc(CSc2ncnc3[nH]ncc23)n1-c1ccccc1Cl [Compound D-999, reference compound] ?
3.98

What value of measured pIC50 is listed for `O=c1c2ccccc2nc(CSc2ncnc3[nH]cnc23)n1-c1ccc(Cl)cc1` ?
6.15
